Value source: ChEMBL document CHEMBL1201862

system: MDA-N; experiment: NCI tumour cell line growth inhibition, 48 h
Activity calls are given as the source filed them. Rule as the data show it: active = GI50 up to about 1.1 µM and inactive = higher.
Kindly state GI50 for each of the entries shown.

## Task Return reported GI50; argument: COC(=O)C1OC(O[C@H]2CC[C@]3(C)[C@H]4CC=C5[C@@H]6CC(C)(C)CC[C@]6(C(=O)OC)CC[C@@]5(C)[C@]4(C)CC[C@H]3C2(C)C)C(O)C(O)C1O (stereo partly specified)
## Result 17 µM (inactive)

## Task // next record `C(/C=N/N=C1NCCCN1)=N\N=C1NCCCN1`
## Result > 100 µM (inactive)

## Task // next record `Cc1ccc(Nc2cc(=O)[nH]c(=S)[nH]2)cc1`
## Result > 100 µM (inactive)

## Task // next record `CN(C)CCN(/C(=N/c1ccccc1)N1CCCC1)c1ccccc1`
## Result 4.1 µM (inactive)

## Task // next record `CCCC(=O)Nc1ccc2c(c1)CN1C(=O)c3ccccc3C1=N2`
## Result > 100 µM (inactive)

## Task // next record CCCCN1C(=O)CC2[C@@H]3CCc4cc(OC)ccc4C3CC[C@]2(C)C1=O (stereo partly specified)
## Result > 10 µM (inactive)

## Task // next record `CNc1c2c(c3nc4ccccc4c4c3c1N=C4)NCCC2=O`
## Result 7.35 µM (inactive)

## Task // next record CC1OC(c2ccc3c(OCc4ccccc4)cccc3c2O)CC(OCc2ccccc2)[C@H]1OCc1ccccc1 (stereo partly specified)
## Result > 10 µM (inactive)

## Task // next record `CCN(CC)CCNc1ccc2ncn3c4ccc(O)cc4c(=O)c1c23`
## Result 4.19 µM (inactive)

## Task // next record `N#CCc1nc2cc(C(F)(F)F)ccc2s1`
## Result 32.2 µM (inactive)

## Task // next record `CC1=CC(=O)/C(=C/NC(=O)NN)C(=O)O1`
## Result > 100 µM (inactive)

## Task // next record CCOC(=O)C(C)c1nc2cc(N3CCN(C)CC3)c(F)cc2[nH]c1=O (stereo unspecified)
## Result > 100 µM (inactive)

## Task // next record CC(=O)SSC1(Cl)C(C)(C)C(Cl)(SSC(C)=O)C1(C)C (stereo unspecified)
## Result 65 µM (inactive)

## Task // next record `N#CCc1nc(-c2cc3ccc(O)cc3oc2=O)cs1`
## Result 48.9 µM (inactive)

## Task // next record O=C(CC(NC(=O)C(F)(F)F)C(=O)O)OCc1ccccc1 (stereo unspecified)
## Result > 100 µM (inactive)

## Task // next record `CCCCCC(=O)OC[n+]1ccc(-c2c(COC(=O)NC(C)C)c(COC(=O)NC(C)C)c3n2CCC3)cc1`
## Result > 100 µM (inactive)

## Task // next record `O=C(CCc1ccccc1)ON1C(=S)NC(c2ccccc2)(c2ccccc2)C1=S`
## Result 38.1 µM (inactive)

## Task // next record CC(C)C1CNC(=O)C2(/C=N/C(C(C)C)CNC(=O)C3(/C=N/1)CCCO3)CCCO2 (stereo unspecified)
## Result > 10 µM (inactive)

## Task // next record `Cc1ccc2c(n1)C(=O)c1ccccc1C2=O`
## Result > 45.6 µM (inactive)

## Task // next record `Oc1[nH]c(Nc2ccc(Cl)c(C(F)(F)F)c2)nc2ncnc1-2`
## Result 25.6 µM (inactive)

## Task // next record O=C(O)CC1NCc2cc3ccccc3nc21 (stereo unspecified)
## Result > 100 µM (inactive)
